# Assay text: Macroscopic pKa value at 25 C, ionic strength 0.1 M
# Format: physicochemical
# Measurement context: read-out: pK1
Quantity measured: pKa

Note to self: pKa recorded for NCCCCNCCCN was 8.15

Note to self: pKa recorded for NCCCNCCCCNCCCN was 7.91

---

# Assay text: Macroscopic pKa value at 25 C, ionic strength 1 M
# Format: physicochemical
# Measurement context: read-out: pK1
Quantity measured: pKa

Note to self: pKa recorded for NCCCCNCCCN was 8.93

Note to self: pKa recorded for CCCC(=O)NC(Cc1ccc(O)cc1)C(=O)NCCCNCCCCNCCCN (stereo not drawn) was 8.5

Note to self: pKa recorded for NCCCNCCCCNCCCN was 8.69

---

# Assay text: Macroscopic pKa value at 27 C, ionic strength 0.1 M
# Assay type: physicochemical
# Measurement context: read-out: pK2
Quantity measured: pKa

Note to self: pKa recorded for NCCCNCCCNCCCN was 8.81

Note to self: pKa recorded for NCCCCNCCCNCCCN was 9.24

---

# Assay text: Macroscopic pKa value at 25 C, ionic strength 1 M
# Type: physicochemical
# Measurement context: read-out: pK4
Quantity measured: pKa
Response field accepts a number only; no unit should be typed.

Note to self: pKa recorded for NCCCNCCCCNCCCN was 10.8

Shifting focus to the molecule that follows.
Note to self: pKa recorded for CCCC(=O)NC(Cc1ccc(O)cc1)C(=O)NCCCNCCCCNCCCN (configuration not stated) was 11.4

---

# Assay text: Macroscopic pKa value at 27 C, ionic strength 0.1 M
# Type: physicochemical
# Measurement context: read-out: pK1
Quantity measured: pKa

Note to self: pKa recorded for NCCCCNCCCNCCCN was 7.59

Note to self: pKa recorded for NCCCNCCCNCCCN was 7.36

---

# Assay text: Macroscopic pKa value at 27 C, ionic strength 0.1 M
# Type: physicochemical
# Measurement context: read-out: pK4
Quantity measured: pKa

Note to self: pKa recorded for NCCCNCCCNCCCN was 10.8

Note to self: pKa recorded for NCCCCNCCCNCCCN was 11.1

---

# Assay text: Macroscopic pKa value at 25 C, ionic strength 1 M
# Type: physicochemical
# Measurement context: read-out: pK2
Quantity measured: pKa

Note to self: pKa recorded for NCCCNCCCCNCCCN [SPERMINE] was 9.31

Note to self: pKa recorded for NCCCCNCCCN [SPERMIDINE] was 10.3

Note to self: pKa recorded for CCCC(=O)NC(Cc1ccc(O)cc1)C(=O)NCCCNCCCCNCCCN (stereo not drawn) was 9.5

---

# Assay text: physchem
Quantity measured: pKa
Response field accepts a number only; no unit should be typed.

Note to self: pKa recorded for NCCCNCCCCNCCCN was 10.6

---

# Assay text: Macroscopic pKa value at 25 C, ionic strength 1 M
# Type: physicochemical
# Measurement context: read-out: pK3
Quantity measured: pKa

Note to self: pKa recorded for CCCC(=O)NC(Cc1ccc(O)cc1)C(=O)NCCCNCCCCNCCCN (stereo not drawn) was 10.4

Note to self: pKa recorded for NCCCNCCCCNCCCN was 10.7

Note to self: pKa recorded for NCCCCNCCCN was 10.9

---

# Assay text: Macroscopic pKa value at 25 C, ionic strength 0.1 M
# Type: physicochemical
# Measurement context: read-out: pK2
Quantity measured: pKa

Note to self: pKa recorded for NCCCCNCCCN was 9.74

Note to self: pKa recorded for NCCCNCCCCNCCCN was 8.68
